Quick reference: MIC of the listed items.
- Tested on: Pseudomonas aeruginosa
- Assay method text: Antimicrobial activity against Pseudomonas aeruginosa PTCC 1074 after 24 hr by Alamar blue assay
- Format: functional
- Experimental conditions: PTCC 1074, 24 h

Consider the following illustrative entries.
CSc1ncc(C2NC(=O)NC(C)=C2C(=O)Nc2ccc(Cl)cc2)n1Nc1ccccc1 (stereo not drawn) | > 512 µg/mL
CC1=C(C(=O)Nc2cccc(Cl)c2)C(c2cccs2)NC(=O)N1 (stereo not drawn) | > 512 µg/mL

# next compound below
Query :: Fill in the blank: the reported MIC of CC1=C(C(=O)Nc2ccccc2Cl)C(c2cccs2)NC(=O)N1 (stereo not drawn) is ____.
Result :: > 512 µg/mL

----------
- Test system: Candida albicans
- Assay method text: Antimicrobial activity against Candida albicans PTCC 5027 after 24 hr by Alamar blue assay
- Type: functional
- Experimental conditions: PTCC 5027, 24 h
Property name: MIC

Consider the following illustrative entries.
CC1=C(C(=O)Nc2ccccn2)C(c2cccs2)NC(=O)N1 (centres undefined) | > 512 µg/mL
CC1=C(C(=O)Nc2ccccc2Cl)C(c2cccs2)NC(=O)N1 (centres undefined) | > 512 µg/mL

Query :: Fill in the blank: the reported MIC of CCCCOC(=O)C1=C(C)NC(=S)NC1c1cccs1 (centres undefined) is ____.
Result :: > 512 µg/mL

Query :: Try this compound next: CC(=O)N1CCN(c2ccc(OCC3COC(Cn4ccnc4)(c4ccc(Cl)cc4Cl)O3)cc2)CC1 (centres undefined)
Result :: 2 µg/mL
